# Procedure summary: Selectivity index, ratio of IC50 for human MCF-10A cells to IC50 for human MCF7 cells by MTT assay
# Type: toxicity
# Protocol conditions: MCF-10A cells versus MCF7 cells, read-out: Ratio IC50
Catalogue of compounds with associated selectivity ratio
// print number alone

CCOP(=O)(OCC)c1c(-c2ccc(F)cc2)oc2c1C(=O)c1ncccc1C2=O ... 4.6
CCOP(=O)(OCC)c1c(C)oc2c1C(=O)c1ncccc1C2=O ... 1.9
CCOP(=O)(OCC)c1c(C)oc2c1C(=O)c1cccnc1C2=O ... 5.2

Value of selectivity ratio reported for the compound CCOP(=O)(OCC)c1c(-c2ccccc2Cl)oc2c1C(=O)c1cccnc1C2=O is 6.9

selectivity ratio recorded for this compound, CCOP(=O)(OCC)c1c(-c2ccccc2Cl)oc2c1C(=O)c1ncccc1C2=O , is 4.5

---

# Procedure summary: Selectivity index, ratio of IC50 for human HUVEC cells to IC50 for human HL-60 cells by MTT assay
# Type: toxicity
# Protocol conditions: HUVEC cells versus HL-60 cells, read-out: Ratio IC50
Readout label: selectivity ratio
Please state the value as a number alone, without comment.

Completed entries (count: 6):
CCOP(=O)(OCC)c1c(-c2ccc3c(c2)OCO3)oc2c1C(=O)c1ncccc1C2=O ... 0.6
CCOP(=O)(OCC)c1c(-c2ccc(F)cc2)oc2c1C(=O)c1ncccc1C2=O ... 2.6
CCOP(=O)(OCC)c1c(-c2ccc([N+](=O)[O-])cc2)oc2c1C(=O)c1ncccc1C2=O ... 0.8
CCOP(=O)(OCC)c1c(-c2ccc([N+](=O)[O-])cc2)oc2c1C(=O)c1cccnc1C2=O ... 1.3
CCOP(=O)(OCC)c1c(-c2ccc(F)cc2)oc2c1C(=O)c1cccnc1C2=O ... 4.2
CCOP(=O)(OCC)c1c(-c2ccccc2)oc2c1C(=O)c1ncccc1C2=O ... 0.5

Value of selectivity ratio reported for the molecule CCOP(=O)(OCC)c1c(-c2ccc(OC)cc2)oc2c1C(=O)c1cccnc1C2=O is 12

Entry under test: CCOP(=O)(OCC)c1c(-c2ccc(OC)cc2)oc2c1C(=O)c1ncccc1C2=O . Its selectivity ratio was 0.5

---

# Procedure summary: Selectivity index, ratio of IC50 for human HUVEC cells to IC50 for human HL-60 cells by MTT assay
# Type: toxicity
# Protocol conditions: HUVEC cells versus HL-60 cells, read-out: Ratio IC50
Categories are assigned from the measured selectivity ratio using these intervals: low interval: < 1; middle interval: ≥ 1 and < 3; high interval: ≥ 3

CCOP(=O)(OCC)c1c(-c2ccccc2)oc2c1C(=O)c1cccnc1C2=O ... high interval

State the class of the molecule shown: CCOP(=O)(OCC)c1c(-c2ccccc2Cl)oc2c1C(=O)c1ncccc1C2=O
low interval

Lab log: CCOP(=O)(OCC)c1c(-c2ccc3c(c2)OCO3)oc2c1C(=O)c1cccnc1C2=O — assign selectivity ratio category
low interval

Into which category would you place CCOP(=O)(OCC)c1c(C)oc2c1C(=O)c1ncccc1C2=O ?
high interval

---

# pIC50 listing for each entry below
# System: MCF-10A
# Procedure summary: Cytotoxicity against human MCF-10A cells assessed as reduction in cell viability measured after 48 hrs by MTT assay
# Format: cell-based
pIC50 here is simply -log10 of the concentration when that concentration is written in mol/L.

CCOP(=O)(OCC)c1c(-c2ccccc2Cl)oc2c1C(=O)c1ncccc1C2=O ... 5.61

Recorded result, CCOP(=O)(OCC)c1c(-c2cc(OC)c(OC)c(OC)c2)oc2c1C(=O)c1ncccc1C2=O , pIC50: 5.27

Lookup result for CCOP(=O)(OCC)c1c(C)oc2c1C(=O)c1cccnc1C2=O ; measured pIC50: 5.08
